- measurement.description: Inhibition of IDH1 R132H mutant in human U-87 MG cells incubated for 72 hrs by measuring 2-HG production by fluorescence based analysis
- Assay type: functional, cell-based, U-87MG ATCC
- measurement.parameters: Homo sapiens, U-87 MG, 72 h
property.label: IC50 (nM)

a = CC(C)Nc1nc(N[C@H](C)C(F)(F)F)nc(C2=C[C@@H](O)CCC2)n1
b = CC(C)CNc1nc(N[C@H](C)C(F)(F)F)nc(C2=CC(O)CCC2)n1 (mixture of isomers)
c = N#Cc1ccnc(N2C(=O)CC[C@H]2C(=O)N(c2cncc(F)c2)[C@H](C(=O)NC2CC(F)(F)C2)c2ccccc2Cl)c1 [IVOSIDENIB]
d = C[C@@H](Nc1nc(NC2CCCC2)nc(C2=CC(O)CCC2)n1)C(F)(F)F (mixture of isomers)
Query :: Put the above entries in order of falling IC50. Quick reminder: the answer is the labels in the order asked.
Result :: b, d, a, c

---

- measurement.description: AUC(0 to infinity) in male Sprague-Dawley rat at 1 mg/kg, iv measured after 24 hrs by LC/MS/MS analysis
- Format: ADME, organism-based
- measurement.parameters: in vivo
property.label: AUC(0-inf) (ng·h/mL)
Kindly provide the numeric value in ng·h/mL only, without the unit symbol.

AUC(0-inf) reported for this compound C[C@@H](Nc1nc(N[C@H](C)C(F)(F)F)nc(C2=C(F)[C@H](O)C(F)(F)CC2)n1)C(F)(F)F : 19800

---

- tested.on: Isocitrate dehydrogenase [NADP], mitochondrial (Homo sapiens, UniProt P48735, R140Q)
- Sequence (P48735 40-452 R140Q limits assumed): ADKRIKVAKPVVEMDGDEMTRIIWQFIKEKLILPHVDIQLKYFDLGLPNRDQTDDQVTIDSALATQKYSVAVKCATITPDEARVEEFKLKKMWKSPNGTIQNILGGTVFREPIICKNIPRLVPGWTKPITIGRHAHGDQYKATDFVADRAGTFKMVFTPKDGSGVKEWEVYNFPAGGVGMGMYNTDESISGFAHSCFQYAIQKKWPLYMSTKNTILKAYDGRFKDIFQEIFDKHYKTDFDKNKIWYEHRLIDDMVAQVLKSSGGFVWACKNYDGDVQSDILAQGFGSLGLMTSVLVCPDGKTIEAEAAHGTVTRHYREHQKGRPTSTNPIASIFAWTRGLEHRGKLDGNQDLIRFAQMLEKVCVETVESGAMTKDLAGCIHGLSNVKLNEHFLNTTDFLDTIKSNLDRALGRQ
- measurement.description: Inhibition of IDH2 R140Q mutant (unknown origin) using alpha-ketoglutarate as substrate preincubated with compound for 16 hrs followed by substrate addition and measured after 1 hr in presence of NADPH by fluorescence based analysis
property.label: IC50 (nM)

A = C[C@@H](Nc1nc(N[C@H](C)C(F)(F)F)nc(C2=C(F)C(O)C(F)(F)CC2)n1)C(F)(F)F (mixture of isomers)
B = COC1C=C(c2nc(N[C@H](C)C(F)(F)F)nc(N[C@H](C)C(F)(F)F)n2)CCC1 (some centres undefined)
C = CC(C)Nc1nc(N[C@H](C)C(F)(F)F)nc(C2=CCCC2)n1
D = CC(C)Nc1nc(N[C@H](C)C(F)(F)F)nc(C(C)c2ccccc2)n1 (mixture of isomers)
Query :: Put the above entries in order of falling IC50. Quick reminder: the answer is the labels in the order asked.
Result :: B, D, C, A
(B: 1030 nM, D: 337 nM, C: 83 nM, A: 28 nM)

---

- tested.on: Adenosine receptor A3 (Homo sapiens, UniProt P0DMS8)
- Sequence (P0DMS8 whole entry): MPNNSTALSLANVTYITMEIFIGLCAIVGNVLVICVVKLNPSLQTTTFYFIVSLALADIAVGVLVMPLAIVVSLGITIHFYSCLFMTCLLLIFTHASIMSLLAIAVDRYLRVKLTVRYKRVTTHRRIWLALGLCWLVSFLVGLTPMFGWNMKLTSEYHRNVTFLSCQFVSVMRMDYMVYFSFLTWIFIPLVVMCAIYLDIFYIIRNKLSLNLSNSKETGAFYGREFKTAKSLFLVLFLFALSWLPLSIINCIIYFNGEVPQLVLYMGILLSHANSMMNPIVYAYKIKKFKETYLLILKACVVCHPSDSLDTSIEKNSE
property.label: IC50 (µM)
Kindly provide the numeric value in µM only, without the unit symbol.

CC(C)(O)CNc1nc(Nc2ccnc(C(F)(F)F)c2)nc(-c2cccc(C(F)(F)F)n2)n1 [ENASIDENIB]
0.012

# next compound below
IC50 reported for this compound C[C@@H](Nc1nc(N[C@H](C)C(F)(F)F)nc(C2=C(F)[C@H](O)C(F)(F)CC2)n1)C(F)(F)F [RANOSIDENIB] : 8.5
